Tested on: histamine induced resistance change
Test: Measurement of Pulmonary Compliance and Resistance (RMG), histamine induced resistance change
Assay type: in vivo, guinea pig (male Dunkin Hartley)
Details: Cavia porcellus, iv; anaesthetised guinea-pigs (Hypnorm/Valium), gallamine pre-treated; compound via right jugular vein; forced oscillation; read-out: RMG ED50 (effective dose required to reduce the histamine induced resistance change by 50%)
Protocol: (B) Measurement of Pulmonary Compliance and Resistance (RMG) Male Dunkin Hartley guinea-pigs weighing between 400 and 650 g were anaesthetised with a combination of Hypnorm (1 ml/kg i.m.) and Valium (5 mg/kg i.p.). The trachea was cannulated and cannulae were inserted into the right jugular vein for the administration of compounds and left carotid artery for blood pressure measurement. […] Respiratory resistance was measured by forced oscillation (Clay and Hughes 1980). […]
READOUT NAME: ED50 (mg/kg)
The answer is to be given in mg/kg; state only the numeric part.

Record excerpt, results attached:
# COMPOUND, UNIT LABEL, ED50
rows = [
    ("Cn1c(=O)c2ccccc2n2c(CN3CCCCC3)nnc12 [Example 23]", "mg/kg", 1),
    ("Cn1c(=O)c2ccccc2n2c(CN3CCOCC3)nnc12 [Example 24]", "mg/kg", 1.8),
    ("CCCCn1c(=O)c2ccccc2n2c(CN3CCCCC3)nnc12 [Example 21]", "mg/kg", 0.15),
]

## Task What does the data say about its ED50? Entry: CCOC(=O)N1CCN(Cc2nnc3n(C)c(=O)c4ccccc4n23)CC1 [Example 25]
## Result 3.5

## Task What does the data say about its ED50? Entry: CN1CCN(Cc2nnc3n(C)c(=O)c4ccccc4n23)CC1 [Example 27]
## Result 0.8

* * *

tested on: histamine induced resistance change; assay: Measurement of Pulmonary Compliance and Resistance (RMG), histamine induced resistance change; format: in vivo, guinea pig (male Dunkin Hartley); settings: Cavia porcellus, iv; anaesthetised guinea-pigs (Hypnorm/Valium), gallamine pre-treated; compound via right jugular vein; forced oscillation; read-out: RMG ED50 (effective dose required to reduce the histamine induced resistance change by 50%)
Measured ED50, listed per entry.
The answer is to be given in mg/kg; state only the numeric part.

Record excerpt, results attached:
# MOLECULE, TARGET SYSTEM, ED50 / mg/kg
measured = [
    ("CCCn1c(=O)c2ccccc2n2c(CN(CC)CC)nnc12 [Example 2]", "histamine induced resistance change", 0.5),
    ("CCn1c(=O)c2ccccc2n2c(CN3CCCCC3)nnc12 [Example 29]", "histamine induced resistance change", 0.5),
    ("CCN(CC)Cc1nnc2n(CC)c(=O)c3ccccc3n12 [Example 30]", "histamine induced resistance change", 1),
    ("CCCn1c(=O)c2ccccc2n2c(CN3CCCCCC3)nnc12 [Example 5]", "histamine induced resistance change", 0.3),
]

Query molecule follows.
## Task What does the data say about its ED50? Entry: CCN(CC)Cc1nnc2n(C)c(=O)c3ccccc3n12 [Example 26]
## Result 1

* * *

system: histamine-induced bronchoconstriction; experiment: Effects on histamine-induced bronchoconstriction in anaesthetised guinea pigs (KRG); assay type: in vivo, guinea pig (male Dunkin Hartley); conditions: Cavia porcellus, iv; anaesthetised guinea-pigs (urethane); test compound i.v. (jugular vein) immediately before histamine; read-out: KRG ED50 (effective dose required to reduce the histamine-induced constriction in lung air volume by 50%)
One threshold, 0.6 mg/kg, splits the recorded ED50 values: lower ones are criterion met, equal or higher ones are criterion not met.

Solved entries (count: 4):
# COMPOUND, TARGET SYSTEM, GROUP LABEL
rows = [
    ("CCOC(=O)N1CCN(Cc2nnc3n(C)c(=O)c4ccccc4n23)CC1 [Example 25]", "histamine-induced bronchoconstriction", "criterion not met"),
    ("CCN(CC)Cc1nnc2n(C)c(=O)c3ccccc3n12 [Example 26]", "histamine-induced bronchoconstriction", "criterion not met"),
    ("CCCn1c(=O)c2ccccc2n2c(CN3CCCC3)nnc12 [Example 4]", "histamine-induced bronchoconstriction", "criterion not met"),
    ("CCCn1c(=O)c2ccccc2n2c(CN3CC(C)CC(C)C3)nnc12 (stereo not drawn) [Example 8]", "histamine-induced bronchoconstriction", "criterion not met"),
]

## Task Answer whether the compound CC(C)n1c(=O)c2ccccc2n2c(CN3CCCCCC3)nnc12 [Example 20] has ED50 strictly less than 0.6 mg/kg
## Result criterion not met

## Task Answer whether the compound CCCn1c(=O)c2ccccc2n2c(CN3CCN(c4ccccc4)CC3)nnc12 [Example 6] has ED50 strictly less than 0.6 mg/kg
## Result criterion not met

## Task Answer whether the compound CC(C)n1c(=O)c2ccccc2n2c(CN3CCCCC3)nnc12 [Example 19] has ED50 strictly less than 0.6 mg/kg
## Result criterion met

## Task Answer whether the compound Cn1c(=O)c2ccccc2n2c(CN3CCCCC3)nnc12 [Example 23] has ED50 strictly less than 0.6 mg/kg
## Result criterion not met

## Task Answer whether the compound CCCn1c(=O)c2ccccc2n2c(CN3CCCCC3)nnc12.Cl.O [Example 1] has ED50 strictly less than 0.6 mg/kg
## Result criterion met

## Task Answer whether the compound C=CCn1c(=O)c2ccccc2n2c(CN3CCCCC3)nnc12 [Example 33] has ED50 strictly less than 0.6 mg/kg
## Result criterion met

## Task Answer whether the compound CCCCn1c(=O)c2ccccc2n2c(CN3CCCCCC3)nnc12 [Example 22] has ED50 strictly less than 0.6 mg/kg
## Result criterion not met

## Task Answer whether the compound CCCn1c(=O)c2ccccc2n2c(CNC3CCCCC3)nnc12 [Example 11] has ED50 strictly less than 0.6 mg/kg
## Result criterion not met

## Task Answer whether the compound CCCn1c(=O)c2ccccc2n2c(CN3CCN(C)CC3)nnc12 [Example 3] has ED50 strictly less than 0.6 mg/kg
## Result criterion not met

## Task Answer whether the compound CCCCn1c(=O)c2ccccc2n2c(CN3CCCCC3)nnc12 [Example 21] has ED50 strictly less than 0.6 mg/kg
## Result criterion met

## Task Answer whether the compound CCCn1c(=O)c2ccccc2n2c(CN3CCCCCC3)nnc12 [Example 5] has ED50 strictly less than 0.6 mg/kg
## Result criterion met

## Task Answer whether the compound CCCNCc1nnc2n(CCC)c(=O)c3ccccc3n12 [Example 10] has ED50 strictly less than 0.6 mg/kg
## Result criterion not met

## Task Answer whether the compound CCn1c(=O)c2ccccc2n2c(CN3CCCCC3)nnc12 [Example 29] has ED50 strictly less than 0.6 mg/kg
## Result criterion met

## Task Answer whether the compound CCCCNCc1nnc2n(CCC)c(=O)c3ccccc3n12 [Example 12] has ED50 strictly less than 0.6 mg/kg
## Result criterion not met

## Task Answer whether the compound Cn1c(=O)c2ccccc2n2c(CN3CCOCC3)nnc12 [Example 24] has ED50 strictly less than 0.6 mg/kg
## Result criterion not met

## Task Answer whether the compound O=c1c2ccccc2n2c(CN3CCCCC3)nnc2n1-c1ccccc1 [Example 31] has ED50 strictly less than 0.6 mg/kg
## Result criterion met

## Task Answer whether the compound CCCCN(CCCC)Cc1nnc2n(CCC)c(=O)c3ccccc3n12 [Example 14] has ED50 strictly less than 0.6 mg/kg
## Result criterion not met

Origin of values: patent US4472400A
